target: Glucocorticoid receptor (Homo sapiens) (UniProt P04150); test: qHTS assay to identify small molecule antagonists of the glucocorticoid receptor (GR) signaling pathway (AID 720692); settings: GR-bla HeLa, beta-lactamase FRET ratio, dexamethasone-stimulated, 18 h; series mostly up to 58.5 µM
Sequence (P04150 whole entry, looked up): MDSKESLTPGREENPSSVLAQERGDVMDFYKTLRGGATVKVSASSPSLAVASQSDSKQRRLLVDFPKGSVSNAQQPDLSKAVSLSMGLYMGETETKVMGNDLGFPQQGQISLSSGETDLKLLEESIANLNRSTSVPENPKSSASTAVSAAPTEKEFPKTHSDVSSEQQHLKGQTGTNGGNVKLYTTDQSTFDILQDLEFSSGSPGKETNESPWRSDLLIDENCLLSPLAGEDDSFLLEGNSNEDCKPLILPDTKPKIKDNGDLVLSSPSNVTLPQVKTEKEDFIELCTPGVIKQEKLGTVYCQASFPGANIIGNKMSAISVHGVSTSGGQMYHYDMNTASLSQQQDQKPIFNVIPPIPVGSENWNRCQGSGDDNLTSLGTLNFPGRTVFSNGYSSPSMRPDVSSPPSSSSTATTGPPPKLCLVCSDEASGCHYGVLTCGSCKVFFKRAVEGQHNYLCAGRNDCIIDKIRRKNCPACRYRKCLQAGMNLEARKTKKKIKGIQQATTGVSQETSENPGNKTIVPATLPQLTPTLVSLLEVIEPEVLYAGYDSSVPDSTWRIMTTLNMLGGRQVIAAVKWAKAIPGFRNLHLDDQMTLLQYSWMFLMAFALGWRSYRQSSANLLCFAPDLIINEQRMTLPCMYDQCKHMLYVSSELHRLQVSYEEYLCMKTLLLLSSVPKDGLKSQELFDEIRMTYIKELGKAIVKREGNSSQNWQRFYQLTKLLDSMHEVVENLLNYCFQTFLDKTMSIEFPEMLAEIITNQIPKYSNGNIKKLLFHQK
Results filed as inconclusive are left out. Active and inactive are the calls of the source. Calls follow the shape of the dose curve; as a rule, active = well fitted inhibition curve with a large enough effect in the signal ratio in the repeat runs (not every such curve was filed as active); inconclusive = weak or mixed curves, or effect the other way; inactive = no such curve, though single readings can be large or run the other way; the % refers to the signal ratio.
Choose the fitting class; nothing outside active, inactive is accepted.

>>> grouplabel("Cc1cccc2sc(N)nc12")
"inactive"

Write down the call the test reported for this compound. Item: CS(=O)(=O)c1ccc([C@@H](C[C@H]2CCC(=O)C2)C(=O)Nc2cnccn2)cc1Cl
inactive

Write down the call the test reported for this compound. Item: O=S(=O)(O)CO
inactive

Write down the call the test reported for this compound. Item: O=C(O)CCC(=O)OC[C@@H](NC(=O)C(Cl)Cl)[C@H](O)c1ccc([N+](=O)[O-])cc1
inactive

Write down the call the test reported for this compound. Item: CN(C)CC/C=C1\c2ccccc2Sc2ccc(Cl)cc21
inactive

Write down the call the test reported for this compound. Item: CCC(CO)(CO)CO
inactive

// provenance: PubChem BioAssay (Tox21)
